System: NCI-H23 lung
Test: NCI tumour cell line growth inhibition, 48 h
Quantity Name: TGI

Here is how some compounds turned out for TGI.
compound="COC(=O)/C=C/[C@H]1[C@H](C)N1S(=O)(=O)c1ccc(C)cc1 (stereo partly specified)" tgt="NCI-H23 lung" result="> 100 µM"
compound=Cc1cc(=O)[nH]c2c1C(=O)C(=O)C=C2 tgt="NCI-H23 lung" result="48.3 µM"
compound=CCN(CC)CCCNc1c2cc(OC)ccc2nc2cccc([N+](=O)[O-])c12 tgt="NCI-H23 lung" result="0.344 µM"
compound=c1ccc(Oc2cnc3ccccc3n2)cc1 tgt="NCI-H23 lung" result="> 100 µM"
compound=O=C(NCCOCCO)c1ccc(O)cc1 tgt="NCI-H23 lung" result="> 100 µM"
compound="CC(NC(=O)C1(N)CCCC1)C(=O)O (stereo unspecified)" tgt="NCI-H23 lung" result="> 100 µM"
compound=COc1ccc2oc(=O)c(-c3nc4ccccc4s3)cc2c1 tgt="NCI-H23 lung" result="> 63.9 µM"
compound="CC(=O)SC(C[N+](=O)[O-])c1ccccc1 (stereo unspecified)" tgt="NCI-H23 lung" result="38.3 µM"
compound="CC(=O)NC1C(OCc2ccccc2)OC(COC(=O)CCCCCCCCCCNC(=O)CCNc2ccc([N+](=O)[O-])c3[nH]c4ccc(O)cc4c(=O)c23)C(O)C1OC(C)C(=O)N[C@H](C(=O)N[C@H](CCC(=O)O)C(N)=O)C(C)C (stereo partly specified)" tgt="NCI-H23 lung" result="> 100 µM"
compound=CN=C(NC#N)NCc1ccccc1 tgt="NCI-H23 lung" result="> 100 µM"

The compound O=C1OCC(CN2CCC(n3c(=O)[nH]c4ccccc43)CC2)=C1c1ccccc1 , tested on NCI-H23 lung, showed TGI of 52.2 µM

// TGI (NCI-H23 lung) for O=CN/C=C\c1cc(O)ccc1O = > 56.1 µM

The observed TGI for COc1cc(Nc2nccc(-c3cnn4ncccc34)n2)cc(OC)c1 when tested with NCI-H23 lung stands at 0.586 µM

Entry CC(=O)O[C@H]1CC[C@@]2(C)[C@@H](CC[C@@H]3[C@@H]2CC(=O)[C@@]2(C)[C@H]3C[C@@H]3CC(C)=CC(=O)[C@@H]32)C1 , NCI-H23 lung data, TGI value: > 100 µM

Sample O=C1OC(/C=C/c2ccccc2)C(=O)C1=O (stereo unspecified) , system: NCI-H23 lung. Its TGI is > 100 µM
